# studyTarget: aggrecanase-1 (Homo sapiens, UniProt O75173)
# Sequence (O75173 213-837): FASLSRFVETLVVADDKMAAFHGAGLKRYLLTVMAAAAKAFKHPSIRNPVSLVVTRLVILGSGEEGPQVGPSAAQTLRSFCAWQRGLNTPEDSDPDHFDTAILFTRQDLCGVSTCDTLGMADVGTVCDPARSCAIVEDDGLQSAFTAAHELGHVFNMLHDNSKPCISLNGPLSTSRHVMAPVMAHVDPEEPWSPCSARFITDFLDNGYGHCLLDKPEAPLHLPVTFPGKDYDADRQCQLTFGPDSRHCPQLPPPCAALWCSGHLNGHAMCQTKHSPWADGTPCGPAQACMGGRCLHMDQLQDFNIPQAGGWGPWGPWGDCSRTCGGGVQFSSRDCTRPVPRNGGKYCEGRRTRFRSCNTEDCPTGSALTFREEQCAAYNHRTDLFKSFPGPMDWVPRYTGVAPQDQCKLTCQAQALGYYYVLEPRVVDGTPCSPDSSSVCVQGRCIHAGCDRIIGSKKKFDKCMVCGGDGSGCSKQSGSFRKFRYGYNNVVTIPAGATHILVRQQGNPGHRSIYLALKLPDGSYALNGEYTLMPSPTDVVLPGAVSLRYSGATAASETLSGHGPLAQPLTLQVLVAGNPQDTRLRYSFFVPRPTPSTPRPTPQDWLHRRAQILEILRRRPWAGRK
# experimentalDetails: Aggrecanase-1 inhibitory action (Particle Assay, GAG release from aggrecan-containing polyacrylamide particles)
# Type: biochemical
# experimentalContext: Experimental Example 1; read-out: IC50 AG1
Listed here: items and their measured IC50.

compound: CC1[C@H](c2ccccc2)[C@]1(NS(=O)(=O)c1ccc(-n2cc(C(F)(F)F)cn2)s1)C(=O)O (stereo partly shown) [Example 2-577]
IC50: < 100 nM
//
compound: CC1C(c2ccccc2)C1(NS(=O)(=O)c1ccc(-c2ccc(Cl)cc2)s1)C(=O)O (stereo not shown) [Example 2-326]
IC50: < 1000 nM
//
compound: NCCc1ccc([C@H]2C[C@@]2(NS(=O)(=O)c2ccc(-c3cc(C(F)(F)F)on3)s2)C(N)=O)cc1 [Example 2-300]
IC50: < 1000 nM
//
compound: O=C(O)C1(NS(=O)(=O)c2ccc(-c3cc(C(F)F)on3)s2)C2CCCc3ccccc3C21 (stereo not shown) [Example 2-383]
IC50: < 100 nM
//
compound: CN(C)C(=O)NCC1(c2ccccc2)CC1(NS(=O)(=O)c1ccc(-c2ccc(Cl)cc2)s1)C(=O)O (stereo not shown) [Example 2-378]
IC50: < 1000 nM

Hey, aggrecanase-1 (Homo sapiens, UniProt O75173) data for O=C(O)C1(NS(=O)(=O)c2ccc(-c3ccc(Cl)cn3)s2)C2CCCc3ccccc3C21 (stereo not shown) [Example 2-365] : IC50 came out at < 100 nM

Hey, aggrecanase-1 (Homo sapiens, UniProt O75173) data for COCCCC1(c2ccccc2)CC1(NS(=O)(=O)c1ccc(-n2cc(Cl)cn2)s1)C(=O)O (stereo not shown) [Example 2-560] : IC50 came out at < 1000 nM

Values compiled from patent US20080261994A1.
